Test system: mouse peritoneal cells
Assay: Cell viability, lactate dehydrogenase (LDH) assay
Assay type: cell-based
Conditions: compound 50 μmol·l^−1, 5 hours
molecules and their reported Cell viability in % of untreated controls (LDH assay)

Example molecules with recorded Cell viability in % of untreated controls (LDH assay):
# compoundStructure, measurement
rows = [
    ("CCCCc1c(-c2ccc(OCc3ccccc3)cc2)nc(N)nc1-c1cccc(Cl)c1", "101.3 ± 2.0 (n = 4) %"),
    ("CCCCc1c(-c2ccccc2)nc(N)nc1-c1cc(C)c(OCc2ccccc2Cl)c(C)c1", "103.6 ± 0.3 (n = 8) %"),
    ("CCCCc1c(-c2ccc(Cl)cc2)nc(N)nc1-c1ccc(OCc2ccccc2)cc1", "96.7 ± 2.2 (n = 4) %"),
    ("CCCCc1c(-c2ccccc2)nc(N)nc1-c1ccc(OCC)cc1", "104.6 ± 1.3 (n = 8) %"),
    ("CCCCc1c(-c2ccccc2)nc(N)nc1-c1cc(C)c(OCc2cccc(Cl)c2)c(C)c1", "102.8 ± 0.4 (n = 8) %"),
    ("CCCCc1c(-c2ccccc2)nc(N)nc1-c1ccc(OCc2ccc(Cl)cc2)cc1", "101.2 ± 0.8 (n = 8) %"),
]

Then there is this molecule:
molecule `Nc1nc(-c2ccccc2)cc(-c2ccc(OCc3ccc(Cl)cc3)cc2)n1` , Cell viability in % of untreated controls (LDH assay) observed: 102.2 ± 4.1 (n = 4) %

###

System: mouse peritoneal cells
Assay: Cell viability, lactate dehydrogenase (LDH) assay
Assay type: cell-based
Settings: compound 50 μmol·l^−1, 5 hours
Procedure: Cell viability was determined using the lactate dehydrogenase assay (LDH kit, Sigma-Aldrich). The mouse peritoneal cells were cultured for 5 hours in the presence of tested compounds applied at the concentration of 50 μmol.l^−1. The effects of pyrimidines were compared with the viability of cells cultured in the absence of the compounds. The later was taken as a control 100% viability.
assayReadout: Cell viability in % of untreated controls (LDH assay)

# molecule, measurement
rows = [
    ("CCCCc1c(-c2ccccc2)nc(N)nc1-c1ccc(OCc2cccc3ccccc23)cc1 [Compound 1f]", "104.8 ± 0.4 (n = 8) %"),
    ("CCCCc1c(-c2ccc(OC)cc2)nc(N)nc1-c1ccc(OCc2ccccc2)cc1 [Compound 2b]", "100.3 ± 1.2 (n = 4) %"),
    ("COc1ccc(COc2ccc(-c3cc(-c4ccccc4)nc(N)n3)cc2)cc1 [Compound 1g]", "99.6 ± 3.0 (n = 4) %"),
    ("CCCCc1c(-c2ccccc2)nc(N)nc1-c1ccc(OCc2ccc(OC)cc2)cc1 [Compound 1h]", "104.2 ± 0.3 (n = 8) %"),
    ("CCCCc1c(-c2ccccc2)nc(N)nc1-c1ccc(OC(C)C)cc1 [Compound 1b]", "71.2 ± 1.9 (n = 8) %"),
]

molecule CCCCc1c(-c2ccccc2)nc(N)nc1-c1ccc(OCc2ccccc2)c(F)c1F [Compound 1m] , Cell viability in % of untreated controls (LDH assay) observed: 103.7 ± 0.4 (n = 8) %

molecule CCCCc1c(-c2ccccc2)nc(N)nc1-c1ccc(OCc2ccccc2)cc1C [Compound 1k] , Cell viability in % of untreated controls (LDH assay) observed: 103.2 ± 0.5 (n = 8) %

molecule Nc1nc(-c2ccccc2)cc(-c2ccc(OCc3ccccc3)cc2)n1 [Compound 1d] , Cell viability in % of untreated controls (LDH assay) observed: 101.2 ± 0.7 (n = 4) %

molecule Nc1nc(-c2ccccc2)cc(-c2ccc(OCc3ccccc3)c(F)c2F)n1 [Compound 1l] , Cell viability in % of untreated controls (LDH assay) observed: 102.6 ± 3.7 (n = 4) %
